target: Alpha-2C adrenergic receptor (Homo sapiens) (UniProt P18825); experiment: compounds altering alpha2C-coupled GIRK flux – cell-based, HEK293 alpha2C/GIRK1/2, thallium flux, primary screen (AID 624); settings: thallium flux BTC fluorescence, at 10 µM, actives lie on both sides;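 note: slope of fluorescence ratio to pre-addition baseline per second over 15 to 24 s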
Sequence (P18825 whole entry, looked up): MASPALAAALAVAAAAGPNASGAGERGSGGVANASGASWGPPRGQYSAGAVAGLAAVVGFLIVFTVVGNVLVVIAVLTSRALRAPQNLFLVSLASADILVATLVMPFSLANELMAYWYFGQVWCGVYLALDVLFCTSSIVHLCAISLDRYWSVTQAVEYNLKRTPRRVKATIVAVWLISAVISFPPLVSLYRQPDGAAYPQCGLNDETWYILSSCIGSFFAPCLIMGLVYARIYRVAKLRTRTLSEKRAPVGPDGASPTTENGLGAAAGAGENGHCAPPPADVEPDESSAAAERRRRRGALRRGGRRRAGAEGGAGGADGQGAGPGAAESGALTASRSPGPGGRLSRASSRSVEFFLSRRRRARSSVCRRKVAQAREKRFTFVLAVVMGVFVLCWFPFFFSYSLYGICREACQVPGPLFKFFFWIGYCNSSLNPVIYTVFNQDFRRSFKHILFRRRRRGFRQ
Active and inactive are the calls of the source.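 Rule for the calls: active = fluorescence slope after compound addition differing from the mean of all screened samples at 99.7% confidence, in either direction; inactive = the rest.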
Readout Type: slope

Worked cases, slope given:
[[record]]
compound = "C/C(Cl)=C/CC1(CN2CCCC2=O)C(=O)NC(=O)NC1=O"
readout_type = "slope"
test_value = "0.00947 (inactive)"

[[record]]
compound = "COc1ccc2[nH]cc(CCN(C)C)c2c1"
readout_type = "slope"
test_value = "0.00666 (inactive)"

[[record]]
compound = "O=c1c(C=NCCN2CCNCC2)c(O)n(C2CCCCC2)c(=O)n1C1CCCCC1"
readout_type = "slope"
test_value = "0.00535 (inactive)"

[[record]]
compound = "O=c1c2ccccc2[se]n1-c1ccccc1"
readout_type = "slope"
test_value = "0.00458 (inactive)"

[[record]]
compound = "CN1CCc2nc3sc(C#N)c(N)c3c(-c3cccs3)c2C1"
readout_type = "slope"
test_value = "0.00412 (inactive)"


State the recorded slope for every item in the following list.
1. CC(=O)OC1(Cc2ccccc2)CN2CCC1c1ccccc12 (stereo unspecified)
2. O=C(NCc1ccccn1)c1ccccc1Cl

["0.00421 (inactive)", "0.00536 (inactive)"]

###

assay: endothelial E-selectin expression blockers – imaging, HUVEC, immunofluorescence, MLSMR starter and 10KST1 sets, primary screen (AID 487); settings: HUVEC TNFalpha-induced E-selectin immunofluorescence imaging, at 2 µM;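 note: signal is fraction of cell area covered by stained E-selectin grains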
Active and inactive are the calls of the source.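 How the source made its calls: active means visually confirmed hit in the image check and inhibition above 20%; inconclusive means visually confirmed hit but inhibition not above 20%; inactive means no visual hit in the image check.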
Give your call using only these classes: 1 (yes) (active), 0 (no) (inactive)

Consider the worked cases shown below.
[[record]]
molecule = "O=c1[nH]c2ccccc2c(=O)n1-c1cccc(Cl)c1"
answer_label = "0 (no)"

[[record]]
molecule = "C=CCOC(=O)COc1cc(C)cc2oc(=O)c3c(c12)CCC3"
answer_label = "1 (yes)"

[[record]]
molecule = "CCn1nc(-c2ccccc2)nc2c(=O)n(C)c(=O)nc1-2"
answer_label = "0 (no)"

[[record]]
molecule = "CCOC(=O)[C@]1(C#N)[C@@H]2C=CC(C(C)=O)=CN2[C@@H](C(N)=O)[C@@H]1c1ccsc1"
answer_label = "0 (no)"


Given CCC(C)NC(=O)c1c(N)n(CC2CCCO2)c2nc3ccccc3nc12 (stereo unspecified) , state the outcome it received in this test.
0 (no)

Given `C=CCn1c(O)c(C(C)=NCCCO)c(=O)[nH]c1=O` , state the outcome it received in this test.
0 (no)

Given `O=c1[nH]c(=O)n(Cc2ccccc2)c(O)c1C=NCCCO` , state the outcome it received in this test.
0 (no)

Given `Cc1c(N=Cc2c(O)n(Cc3ccco3)c(=O)[nH]c2=O)c(=O)n(-c2ccccc2)n1C` , state the outcome it received in this test.
0 (no)

Given `CCN1CCN(c2ncnc3ccc(Br)cc23)CC1` , state the outcome it received in this test.
0 (no)

###

Can you tell me z-score for the items I'm about to list?
test: Primary imaging screen for DUSP6 inhibitors that restore phospho-Erk in transfected HeLa cells, chemical complementation (AID 609); conditions: HeLa MKP-3 transfected, phospho-Erk imaging KS statistic; measured here: cell density z-score; at 10 µM
Residues, ends and D or L forms follow the SMILES beside them.
Answers are plain numbers.

[[record]]
compound = "NCC(CC(=O)O)c1ccc(Cl)cc1 (stereo unspecified)"
readout_type = "z-score"
test_value = -0.759

[[record]]
compound = "C#C[C@]1(O)CC[C@H]2[C@@H]3CCC4=CC(=O)CC[C@]4(C)[C@H]3CC[C@@]21C"
readout_type = "z-score"
test_value = 0.928

[[record]]
compound = "COc1ccc2[nH]cc(CCN(C)C)c2c1"
readout_type = "z-score"
test_value = -0.633

[[record]]
compound = "CCCCNC(=O)Nc1ccc(C(O)(C(=O)OCC)C(F)(F)F)cc1 (stereo unspecified)"
readout_type = "z-score"
test_value = -0.832

[[record]]
compound = "CC(C)C[C@H](NC(=O)[C@@H]1CCCN1C(=O)[C@@H](N)Cc1ccc(O)cc1)C(=O)NCC(N)=O (H-YPLG-NH2)"
readout_type = "z-score"
test_value = -0.734

[[record]]
compound = "CN1CCN(C(=O)OC2c3nccnc3C(=O)N2c2ccc(Cl)cn2)CC1 (stereo unspecified)"
readout_type = "z-score"
test_value = -0.576

[[record]]
compound = "O=c1c2ccccc2[se]n1-c1ccccc1"
readout_type = "z-score"
test_value = 1

[[record]]
compound = "O=C(CN1CCN(CCO)CC1)Nc1ccc(Cl)cc1C(=O)c1ccccc1"
readout_type = "z-score"
test_value = 0.92


State the recorded z-score for every item in the following list.
1. COc1ccc2c(c1)c(C(=O)O)c(C)n2CC(C)C
2. CC(=NCCO)c1c(O)n(C)c(=O)n(C)c1=O
3. CCOc1ccc(-n2c(O)c(C=Nc3ccc(N(CC)CC)cc3)c(=O)[nH]c2=O)cc1

[-0.228, 2.05, 0.258]
